Target: Human immunodeficiency virus type 1 reverse transcriptase (Human immunodeficiency virus 1) (UniProt Q72547)
Assay: Inhibition of wild type HIV1 reverse transcriptase
What ID50 was measured for each of the following?

>>> value("CSc1nc(N)c(C)c(C(F)c2ccccc2)n1 (centres undefined)")
"> 20 µM"

Provide reported ID50 for each item, in the same order as listed.
1. CSc1nc(N)c(C)c(C(=O)c2cccc(F)c2)n1
2. CSc1nc(N)c(C)c(C(=O)Cc2ccccc2)n1
3. CSc1nc(N)c(C)c(/C(=N\O)c2ccccc2)n1

0.2 µM
> 20 µM
> 20 µM

* * *

Test system: Human immunodeficiency virus 1
Experiment: Antiviral activity against wild type HIV1 NL4-3 infected in human MT4 cells assessed as virus-induced cell death by MTT method
Assay type: functional
Details: Human immunodeficiency virus 1, NL4-3, MT4; read-out: ED50 (the source's name)
quantity: EC50 (µM)
Answers are plain numbers, in µM.

>>> value("CSc1nc(N)c(C)c(/C(=N\\O)c2ccccc2)n1")
10.5
>>> value("COc1ccc(CSc2nc(Cc3c(Cl)cccc3Cl)c(C)c(=O)[nH]2)cc1")
0.007

Please give EC50 for each item listed below.
1. Cc1ccnc2c1NC(=O)c1cccnc1N2C1CC1 [NEVIRAPINE]
2. CSc1nc(N)c(C)c(C(=O)c2cccc(F)c2)n1

0.04
0.034

For every listed record, write down its EC50.
1. CNc1nc(N)c(C)c(C(=O)c2ccccc2)n1
2. Cc1c(N)nc(S(C)(=O)=O)nc1C(=O)c1ccccc1
3. CSc1nc(N)c(C)c(C(=O)c2ccccc2)n1
4. CSc1nc(N)c(C)c(C(Cl)c2ccccc2)n1 (stereo not drawn)

1. 3.4
2. 0.44
3. 0.06
4. 12

* * *

Target: Human immunodeficiency virus type 1 reverse transcriptase (Human immunodeficiency virus 1) (UniProt Q72547)
Experiment: Inhibition of wild type HIV1 reverse transcriptase
Give measured ID50 for each item. Keep answers brief.
One number for each entry, in µM.

Some compounds with recorded ID50:
>>> value("CSc1nc(N)c(C)c(C(=O)c2cccc3ccccc23)n1")
2.7
>>> value("Cc1c(N)nc(S(C)(=O)=O)nc1C(=O)c1ccccc1")
16
>>> value("CSc1nc(N)c(C)c(C(O)c2ccccc2)n1 (configuration not stated)")
7.7

Attention now turns to another entry.
// returns reported ID50 for input CSc1nc(N)c(C)c(C(=O)c2ccccc2)n1 1.9

* * *

Test system: Human immunodeficiency virus 1
Test: Antiviral activity against wild type HIV1 NL4-3 infected in human MT4 cells assessed as virus-induced cell death by MTT method
Format: functional
Conditions: Human immunodeficiency virus 1, NL4-3, MT4; read-out: ED50 (the source's name)
quantity: EC50

// solved cases for EC50 follow
>>> value("CSc1nc(N)c(C)c(C(O)c2ccccc2)n1 (stereo not given)")
"> 25 µM"
>>> value("CSc1nc(N)c(C)c(C(=O)c2cccc3ccccc23)n1")
"> 19.4 µM"
>>> value("CSc1nc(N)c(C)c(C(=O)Cc2ccccc2)n1")
"> 25 µM"
>>> value("CSc1nc(N)c(C)c(C(=O)CCc2ccccc2)n1")
"> 25 µM"

// below: EC50 requested for another compound
So what does the record say about EC50 for CSc1nc(N)c(C)c(C(F)c2ccccc2)n1 (stereo not given) ? > 25 µM

* * *

Target: Human immunodeficiency virus type 1 reverse transcriptase (Human immunodeficiency virus 1) (UniProt Q72547)
Experiment: Inhibition of wild type HIV1 reverse transcriptase
quantity: ID50

These recorded examples may help you get a feel for the data.
>>> value("CSc1nc(N)c(C)c(C(Cl)c2ccccc2)n1 (stereo not drawn)")
"> 20 µM"
>>> value("CSc1nc(N)c(C)c(C(=O)CCc2ccccc2)n1")
"> 20 µM"

Would you kindly look at the next entry?
Recorded ID50 for CNc1nc(N)c(C)c(C(=O)c2ccccc2)n1 , please? > 20 µM
